- Tested target: T1, HpDprA(5-217)K137E (Helicobacter pylori 26695, UniProt O25100 5-217, K137E)
- T1 sequence: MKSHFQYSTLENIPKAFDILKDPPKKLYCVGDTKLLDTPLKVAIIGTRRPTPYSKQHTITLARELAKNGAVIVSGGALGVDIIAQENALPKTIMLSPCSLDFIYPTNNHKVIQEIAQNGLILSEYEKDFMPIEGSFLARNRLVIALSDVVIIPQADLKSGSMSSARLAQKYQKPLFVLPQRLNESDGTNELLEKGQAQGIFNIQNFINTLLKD
- Test: MST
Parameter: pKd
Please treat pKd as minus the base-10 logarithm of the molar concentration.

Tell me pKd reported for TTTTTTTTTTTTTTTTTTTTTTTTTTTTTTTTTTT (ssDNA) [dT35]
5.14
